molecular target: human PAH with the R408W mutation (Homo sapiens, UniProt P00439, R408W); construct: expressed in transfected cells; test: Cell Based Phenylalanine Flux Assay; settings: A375 cells expressing human R408W PAH; 24 hrs with compound, then sepiapterin and 13C9,15N-Phenylalanine for 4 hours; 13C-Tyrosine by LC-MS; average where tested multiple times; read-out: AC50;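 also: Ten-point dose curve from 2-fold serial dilutions, run in duplicate at 0.5% DMSO final, tracer step used 20 µM sepiapterin and 800 µM labeled phenylalanine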
Sequence (P00439 whole entry R408W): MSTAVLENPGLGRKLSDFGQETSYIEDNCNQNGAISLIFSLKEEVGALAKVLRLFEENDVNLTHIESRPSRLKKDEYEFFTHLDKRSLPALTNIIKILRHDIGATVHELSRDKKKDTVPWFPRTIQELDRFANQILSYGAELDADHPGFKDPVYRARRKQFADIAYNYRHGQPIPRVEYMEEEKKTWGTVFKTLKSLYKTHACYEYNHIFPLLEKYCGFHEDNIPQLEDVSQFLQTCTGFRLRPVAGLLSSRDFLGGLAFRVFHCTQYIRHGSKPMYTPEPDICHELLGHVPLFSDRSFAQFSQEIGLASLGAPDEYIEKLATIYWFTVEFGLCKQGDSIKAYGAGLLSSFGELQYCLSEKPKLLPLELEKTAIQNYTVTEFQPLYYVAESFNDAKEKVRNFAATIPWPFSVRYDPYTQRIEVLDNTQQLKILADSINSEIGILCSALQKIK
Items are presented alongside their recorded AC50.
Measured metric: AC50

                              line_notation                             target_entity  measured_metric           result
0  Cn1cc(-c2nc(C3CC3)c(C(=O)N3CCc4[nH]cnc4[C@H]3c3cc4c(C(F)F)cccn4n3)o2)cn1  human PAH with the R408W mutation (Homo sapiens, UniProt P00439, R408W)             AC50   500 to 1000 nM
1  FC(F)c1nnc(N2CCc3[nH]cnc3[C@H]2c2cc3c(C4CC4)cccn3n2)o1  human PAH with the R408W mutation (Homo sapiens, UniProt P00439, R408W)             AC50         < 500 nM
2  O=C(c1nnc(-c2ccccn2)o1)N1CCc2[nH]cnc2[C@H]1c1cc2c(C3CC3)cccn2n1  human PAH with the R408W mutation (Homo sapiens, UniProt P00439, R408W)             AC50   500 to 1000 nM
3  O=C(c1nnc(-c2ccn(C(F)(F)F)n2)o1)N1CCc2[nH]cnc2[C@@H]1c1cc2cccc(Cl)n2n1  human PAH with the R408W mutation (Homo sapiens, UniProt P00439, R408W)             AC50        > 5000 nM
4  Cc1c(-c2nnc(C(=O)N3CCc4[nH]cnc4[C@H]3c3cc4c(C(C)C)cccn4n3)o2)cnn1C  human PAH with the R408W mutation (Homo sapiens, UniProt P00439, R408W)             AC50         < 500 nM
5  O=C(c1nnc(-c2ccc(F)cn2)o1)N1CCc2[nH]cnc2[C@H]1c1cc2ccccn2n1  human PAH with the R408W mutation (Homo sapiens, UniProt P00439, R408W)             AC50  1000 to 5000 nM
6  Cc1c(-c2nnc(C(=O)N3CCc4[nH]cnc4[C@@H]3c3cc4c(C(C)C)cccn4n3)o2)cnn1C  human PAH with the R408W mutation (Homo sapiens, UniProt P00439, R408W)             AC50  1000 to 5000 nM
